# test: Cytotoxic Profiling in HEK 293 Cell Line of Diverse Libraries Using Quantitative High-Throughput Screening; also: nearly all actives have a fitted effect of over 60% in size
# measurement.conditions: HEK 293 viability, ATP luminescence (CellTiter-Glo), 48-72 h; series mostly up to 115 µM
The whole screen tested about 94,000 compounds, of which about 6,200 (6.6%) were called active. Roughly 31% stayed inconclusive and do not appear here. Calls follow the shape of the dose curve; as a rule, active = well fitted inhibition curve with a large enough effect; inconclusive = small, poorly fitted or top-dose-only effect; inactive = flat fitted curve, though single readings scatter. This is one part of a sample in which actives are shown more often than they occur.
Give your call using only these classes: true for active, false for inactive

Query: recorded result category for CCNC(=O)C1C(c2cccc(NC(=O)c3cccc(C)c3)c2)OC(=O)N1Cc1cccc(Cl)c1 (stereo not given) in this test
true

GET /call?item= CC(=O)N1CCC([C@@H]2CN(Cc3cc(F)c(F)cc3F)C[C@H]2CO)CC1 returns the recorded outcome of this test.
false

Short answer needed: outcome of this test for COc1cccc(-c2cc(C(=O)Nc3cccc(F)c3)c3cnn(C)c3n2)c1 ?
true

Entry O=c1[nH]c(-c2ccncc2)nc2c1CCN(S(=O)(=O)N1CCCC1)C2 : call = ?
false

* * *

# test: Cytotoxic Profiling in HEK 293 Cell Line of Diverse Libraries Using Quantitative High-Throughput Screening; also: nearly all actives have a fitted effect of over 60% in size
# measurement.conditions: HEK 293 viability, ATP luminescence (CellTiter-Glo), 48-72 h; series mostly up to 115 µM
Hit rate of the full screen: of about 94,000 compounds, about 6,200 (6.6%) were called active. About 31% were inconclusive and are not listed. Calls come from the whole dose curve; as a rule, active = well fitted inhibition curve with a large enough effect; inconclusive = small, poorly fitted or top-dose-only effect; inactive = flat fitted curve, though single readings scatter. The full list was thinned out, with actives kept by preference.
Choose the fitting class; nothing outside t for active, f for inactive is accepted.

- molecule: "Cc1cn2nc(C(=O)NCc3cccs3)cc2c(N2CCCC2)n1"
  label.class: "f"
- molecule: "CC(C)c1nc(CCNC(=O)[C@H]2CNC[C@@H](C(=O)N3CCCC3)C2)cs1"
  label.class: "f"
- molecule: "CNC(=O)c1cc[nH]c1C1CCCN(C(=O)Cc2c[nH]c3ccccc23)C1 (stereo unspecified)"
  label.class: "f"
- molecule: "COC(=O)c1cccc2nc([C@H]3CCN(Cc4ccccc4)C3)oc12"
  label.class: "t"
- molecule: "O=C(C[C@@H]1CCNC[C@@H]1Cc1cc(CSc2ccccc2)on1)NCc1ccc2c(c1)OCO2"
  label.class: "t"
- molecule: "CN(CCc1ccccn1)[C@@H]1[C@H](O)[C@H](CO)O[C@@H]1CNS(=O)(=O)c1cccs1"
  label.class: "f"
- molecule: "O=C(c1cccc(Br)c1)N1CCN(C2CCN(Cc3ccccn3)C2=O)CC1 (stereo unspecified)"
  label.class: "f"
- molecule: "O=C(c1ccc(Cl)cc1)N1CCN(CCn2nc3n(c2=O)CCCC3)CC1"
  label.class: "f"

Record lookup: outcome of this test for COCCn1c(=O)n([C@H]2CCCN(C(=O)c3cc(C)n(C)n3)C2)c2ncccc21 ?
f

What outcome does the record of this test show for Cn1ccc(Nc2nccc3c(=O)cc(-c4ccccn4)oc23)n1 ?
f

Per the assay record, what outcome was assigned to COc1ccc(Cl)cc1S(=O)(=O)N1CCCC(CNC(=O)c2ccco2)C1 (stereo unspecified) ?
f

Short answer needed: outcome of this test for CN(C)S(=O)(=O)N1C[C@@H]2CC[C@H](C1)N(Cc1ccccc1C#N)C2 ?
f

Query: recorded result category for OCc1cccc(-c2cc(C3=CCOCC3)c3cncn3c2)c1 in this test
f

Assay outcome for FC(F)(F)c1cccc(-c2cc(C3=CCOCC3)c3cncn3c2)c1 : what was it?
t

What outcome does the record of this test show for Cc1nnc([C@H]2CCN(Cc3ccc(F)cc3)C2)o1 ?
f

Kindly provide the recorded test outcome for the following molecule: O=C1CC(c2ccccc2)N(C(=O)CNC(=O)c2cnccn2)CCCCCCN1 (stereo unspecified)
f

Per the assay record, what outcome was assigned to COCCN1C(=O)c2cccn2CC1CNC(=O)c1ccccc1F (stereo unspecified) ?
f

Recorded call for C=CCN1CCC2(CCC1=O)CN(Cc1ncc[nH]1)CCN2C (stereo unspecified) ?
f

* * *

# test: Cytotoxic Profiling in HEK 293 Cell Line of Diverse Libraries Using Quantitative High-Throughput Screening; also: nearly all actives have a fitted effect of over 60% in size
# measurement.conditions: HEK 293 viability, ATP luminescence (CellTiter-Glo), 48-72 h; series mostly up to 115 µM
In all, about 94,000 compounds went through this assay and about 6,200 (6.6%) were called active. Not shown: some 31% with an inconclusive outcome. Calls come from the whole dose curve; as a rule, active = well fitted inhibition curve with a large enough effect; inconclusive = small, poorly fitted or top-dose-only effect; inactive = flat fitted curve, though single readings scatter. The entries come from a sample that favours actives as a whole.
Entry note: the call must match one of active, inactive

Study these solved cases before continuing.
- compound: "COc1ccc(C(=O)N2CCCC(n3cc(-c4nc(C5CC5)no4)nn3)C2)cc1 (stereo not given)"
  label.class: "inactive"
- compound: "CC(C)c1noc(-c2cn(C3CCN(C(=O)c4ccc(N(C)C)cc4)C3)nn2)n1 (stereo not given)"
  label.class: "active"
- compound: "CCCN1C(=O)NC(Cc2nc(-c3cccnn3)no2)C1=O (stereo not given)"
  label.class: "inactive"
- compound: "O=C(c1ccc(Cl)cc1)N1CCCC(n2cc(-c3nc(-c4ccccc4)no3)nn2)C1 (stereo not given)"
  label.class: "active"
- compound: "O=C(N1CCC(Cc2nc(-c3ccccc3)n[nH]2)C1)C1(c2ccccc2)CC1 (stereo not given)"
  label.class: "active"
- compound: "COCCC(=O)NCC1Cn2cccc2C(=O)N1Cc1ccccc1 (stereo not given)"
  label.class: "inactive"
- compound: "CCOc1ccc(C(=O)N2CCC(n3cc(-c4nc(C)no4)nn3)C2)cc1 (stereo not given)"
  label.class: "inactive"
- compound: "O=C(N1CCCC(Cc2nc(C3CCOCC3)no2)C1)C1(c2ccccc2)CC1 (stereo not given)"
  label.class: "inactive"
- compound: "O=C(C1CCC1)N1CCC(Cc2nc(-c3cccnc3)n[nH]2)C1 (stereo not given)"
  label.class: "inactive"

Now for a further compound.
Test call for this compound, please: COc1cc(OC)cc(C(=O)N2CCCC(n3cc(-c4nc(C(C)C)no4)nn3)C2)c1 (stereo not given)
inactive

* * *

# test: Cytotoxic Profiling in HEK 293 Cell Line of Diverse Libraries Using Quantitative High-Throughput Screening; also: nearly all actives have a fitted effect of over 60% in size
# measurement.conditions: HEK 293 viability, ATP luminescence (CellTiter-Glo), 48-72 h; series mostly up to 115 µM
Hit rate of the full screen: of about 94,000 compounds, about 6,200 (6.6%) were called active. Inconclusive results (about 31%) are left out. The call rests on the fitted dose curve; in most records, active means well fitted inhibition curve with a large enough effect; inconclusive means small, poorly fitted or top-dose-only effect; inactive means flat fitted curve, though single readings scatter. The list comes from a sample in which actives are over-represented; it also holds close analogues and randomly drawn compounds.
Respond only with the outcome that fits, drawn from active, inactive

# count of solved cases: 2
- compound: "CN1CCCCCC1C(=O)NCc1cccnc1Oc1ccccc1F (stereo unspecified)"
  label.class: "inactive"
- compound: "O=C1CC(c2nc(-c3ccc4nc[nH]c4c3)no2)CN1Cc1ccncc1 (stereo unspecified)"
  label.class: "inactive"

Can you look up the reported call for c1ccc2c(CN3CCC[C@H]3c3nc(-c4ccnc(N5CCOCC5)c4)no3)c[nH]c2c1 for me?
active

Recorded test call requested for COCc1ccc2c(c1)c(OC(C)(C)C(=O)N1CCN(C)CC1)nn2Cc1cccnc1
inactive

How did this test come out for COc1ccc(CNC(=O)C2CCCCN2Cc2ccc(-c3ccccc3OC)cc2)cc1 (stereo unspecified) ?
active

Hey, what did the test say about CN(C)C(=O)C1=NOC2CN(C(=O)c3ccn(C)n3)CC12 (stereo unspecified) ?
inactive

What call does the record list for COc1ccc(OC)c(S(=O)(=O)N2CCC(CC(=O)NCc3ccccc3)C2)c1 (stereo unspecified) ?
inactive

* * *

# test: Cytotoxic Profiling in HEK 293 Cell Line of Diverse Libraries Using Quantitative High-Throughput Screening; also: nearly all actives have a fitted effect of over 60% in size
# measurement.conditions: HEK 293 viability, ATP luminescence (CellTiter-Glo), 48-72 h; series mostly up to 115 µM
# Text: Cell-based phenotypic screening is a commonly used approach to discover biological pathways, novel drug targets, chemical probes and high-quality hit-to-lead molecules. Many hits identified from high-throughput screening campaign are ruled out through a series of follow-up potency, selectivity/specificity, and cytotoxicity assays. […]
The campaign covered roughly 94,000 compounds. About 6,200 (6.6%) were called active. Inconclusive results (about 31%) are left out. Calls follow the shape of the dose curve; as a rule, active = well fitted inhibition curve with a large enough effect; inconclusive = small, poorly fitted or top-dose-only effect; inactive = flat fitted curve, though single readings scatter. The sample holds actives, similar compounds and a random draw of the others, so the mix is not that of the screen.
Hello, when you answer, please use one of the following outcomes: yes for active, no for inactive

Answered examples (6):
- compound: "CCOc1ccccc1CN1CCC2(CCN(C(=O)c3cccc(Cl)c3)CC2)Oc2ccccc21"
  label.class: "no"
- compound: "CCOc1ccccc1CN1CCC2(CCN(Cc3cncs3)CC2)Oc2ccccc21"
  label.class: "yes"
- compound: "CN(C)CCNC(=O)C[C@@H]1c2nc(NC(=O)c3ccc(C(C)(C)C)cc3)sc2C[C@@H]2[C@](C)(CO)[C@H](O)CC[C@]21C"
  label.class: "yes"
- compound: "Cc1ccc(-c2cn3cc(C(=O)NCc4cccnc4)nc3s2)cc1"
  label.class: "yes"
- compound: "C[C@H]1[C@@H]2[C@@H](O)C([C@H](C)C(=O)NCCN3CCOCC3)CC[C@@]2(C)CC[C@@H]1NC(=O)c1ccccc1 (stereo partly drawn)"
  label.class: "no"
- compound: "Cc1cc2ncc(C(=O)NCc3cccnc3)cn2n1"
  label.class: "no"

Tell me the assay call for CCCNC(=O)N(C1CCOCC1)C1CCN(S(=O)(=O)c2ccc(F)cc2)CC1 please.
no

Recorded test outcome, item COc1ccc(-n2nc(C3CCN(C(=O)c4ccc(C)cc4)CC3)[nH]c2=O)cc1
no

Which result was noted for this compound in the test: CCOc1ccc(NC(=O)N2CCC3(CC2)SCC(=O)N3Cc2ccco2)cc1
no
